- assay-details: Calu3 toxicity
- Format: cell-based
- measurement-parameters: human, Calu3 cells infected with SARS-CoV-2
measured-property: CC50 at 48 h

# compound, reported-measurement
measured = [
    ("CCCCN(CCCC)CC(O)c1cc(Cl)cc2c1-c1ccc(Cl)cc1/C2=C/c1ccc(Cl)cc1 (stereo not shown)", "> 20 µM"),
]

====

- assay-details: Vero 76 cytotoxicity in uninfected toxicity cultures
- measurement-parameters: African green monkey, CC50, Vero 76; Visual (Cytopathic effect/Toxicity)

# compound, CC50
rows = [
    ("CCCCN(CCCC)CC(O)c1cc(Cl)cc2c1-c1ccc(Cl)cc1/C2=C/c1ccc(Cl)cc1 (stereo not shown)", "> 60 µM"),
]

====

- System: SARS-CoV-2
- assay-details: Vero 76 reduction of virus-induced cytopathic effect
- Format: cell-based
- measurement-parameters: Severe acute respiratory syndrome coronavirus 2, Vero 76, Vero 76; Neutral Red (Cytopathic effect/Toxicity)

# molecule, target-desc, EC50
data = [
    ("CCCCN(CCCC)CC(O)c1cc(Cl)cc2c1-c1ccc(Cl)cc1/C2=C/c1ccc(Cl)cc1 (stereo not shown)", "SARS-CoV-2", "54 µM"),
]

====

- assay-details: in vitro
- measurement-parameters: human
Counter-ions that a name gives are not always drawn.
measured-property: CC50 at 3 days (µM)

# compound, limit-sign, reported-measurement
data = [
    ("C=C[C@]1(C)C[C@@H](OC(=O)CSCCN(CC)CC)[C@]2(C)[C@H](C)CC[C@]3(CCC(=O)[C@H]32)[C@@H](C)[C@@H]1O [Tiamulin fumarate]", ">", 100),
    ("CCCC1O[C@@H]2C[C@H]3[C@@H]4CCC5=CC(=O)C=C[C@]5(C)[C@H]4[C@@H](O)C[C@]3(C)[C@]2(C(=O)CO)O1 (stereo partly shown) [Budesonide]", "=", 10),
    ("CCCCN(CCCC)CC(O)c1cc(Cl)cc2c1-c1ccc(Cl)cc1/C2=C/c1ccc(Cl)cc1 (stereo not shown) [Lumefantrine]", "=", 10),
    ("COc1cc2c(cc1OC)C1CC(=O)C(CC(C)C)CN1CC2 (stereo not shown) [Tetrabenazine]", ">", 100),
]

====

- assay-details: Vero 76 cytotoxicity in uninfected toxicity cultures
- measurement-parameters: African green monkey, CC50, Vero 76; Neutral Red (Cytopathic effect/Toxicity)

# molecule, CC50
measured = [
    ("CCCCN(CCCC)CC(O)c1cc(Cl)cc2c1-c1ccc(Cl)cc1/C2=C/c1ccc(Cl)cc1 (stereo not shown)", "177 µM"),
]
